These measurements were taken from ChEMBL document CHEMBL4513216.

Assay: Toxicity liver stage against HepG2, at 10uM
Assay type: cell-based
Design: test concentration 10 uM, cell line HepG2-A16-CD81EGFP
Conditions: human, HepG2-A16-CD81EGFP cells; read-out: INHIBITION
Each item that follows carries a reported cytotoxicity at 10 µM.
I only need the number, in %, no unit after it.

> print(dat)
                            structuresmiles       reportedproperty  resultvalue
1  Cn1cc(CN2CC[C@@H]3[C@H]2CCC(=O)N3c2ccccc2)cn1  cytotoxicity at 10 µM         7.42
2  c1ccc(O[C@H]2CC[C@H]3[C@H]2OCCN3Cc2nccs2)nc1  cytotoxicity at 10 µM        -12.6
3  CN(Cc1ccccc1)C(=O)c1cc2c(c(S(N)(=O)=O)c1)CCC2  cytotoxicity at 10 µM        -41.5
4       CC(C)CNC(=O)c1c(-n2cnnn2)sc2c1CCCC2  cytotoxicity at 10 µM         10.8

Proceed to the following item.
Q. Any idea what its cytotoxicity at 10 µM is? The compound is CC(C)(C)C(=O)Nc1cnn(-c2ccccc2S(C)(=O)=O)c1
A. 3.65
